# PROTOCOL_NOTES: chemical genetic growth profiling, strain panel (AID 1159580);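 note: tested at 20 µM; growth read once vehicle control cultures reached saturation at 30 °C; 1 = growth at the plate median or of vehicle wells; lower values mean less growth of the strain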
# CONDITIONS_USED: S. cerevisiae deletion strains, growth OD, locus YER155C, strain BEM2 (second series)
Among all 5,500 compounds or so, about 2,000 (36%) were called active. Inconclusive results (about 18%) are left out. Cut-off read from the data, not from the text of the source: active = normalized growth mostly below about 0.91 (no sharp cut-off); inconclusive = no clear call, values can overlap the other calls; inactive = mostly above about 0.92. This is one part of the list. *1 amine or outer side, *2 acyl side, *3 side chain or, on linkers, in order; H or OH if unused. Where a SMILES comes first, the peptide text is derived from it. Bridges are numbered along the chain shown (N, C = ends). [ ]: non-standard residue; d: D form. The star is where a group is joined. ξ: configuration not given here. ΔAla(E,3-NHCONH2) = NC(=O)N/C=C(/N)C(=O)O; X2 = NC1=NCCC(C(N[*:1])C(=O)[*:2])N1; ξβ3hOrn = NCCCC(N)CC(=O)*; Dap = NC[CH](N)C(=O)O
Assign a class; possible classes are y = active, n = inactive

Illustrative cases are given below, each with its answer.
>  <COMPOUND>
O=C(O)c1cc(=O)c2cccc(O)c2[nH]1

>  <CLASSIFICATION>
n

$$$$
>  <COMPOUND>
COc1ccc2c(=O)ccoc2c1

>  <CLASSIFICATION>
n

$$$$
>  <COMPOUND>
c1ccc2c(Cc3c[nH]c4ccccc34)c[nH]c2c1

>  <CLASSIFICATION>
y

$$$$
>  <COMPOUND>
COc1ccc(C(=O)c2ccc(O)cc2)c(O)c1O

>  <CLASSIFICATION>
n

$$$$
>  <COMPOUND>
O=C(O)c1cc(=O)c2c(Cl)cc(Cl)cc2[nH]1

>  <CLASSIFICATION>
n

$$$$

Please let me know the test result on file for NCCCC(N)CC(=O)NCC1NC(=O)C(CO)NC(=O)C(N)CNC(=O)C(C2CCN=C(N)N2)NC(=O)/C(=C\NC(N)=O)NC1=O (stereo not drawn) (H-[Dap]S[Dap](ξβ3hOrn)[ΔAla(E,3-NHCONH2)][X2]; lactam 1-C; configuration not given here) .
n

Please let me know the test result on file for COc1c2occc2c(OC)c2c(=O)cc(C)oc12 .
n

Please let me know the test result on file for OCc1c[nH]c2ccccc12 .
n

Please let me know the test result on file for CCOc1ccc(NC(C)=O)cc1 .
n

Please let me know the test result on file for COc1cc2c(cc1OC)[C@@]13CCN4CC5=CCOC6CC(=O)N2C1[C@H]6[C@H]5C[C@H]43 (stereo partly specified) .
n

====

# PROTOCOL_NOTES: chemical genetic growth profiling, strain panel (AID 1159580)
# CONDITIONS_USED: S. cerevisiae deletion strains, growth OD, locus YKL203C, strain TOR2
The whole screen tested about 5,500 compounds, of which about 2,000 (36%) were called active. About 18% were inconclusive and are not listed. No stated cut-off is given here; in the data, active means normalized growth mostly below about 0.91 (no sharp cut-off); inconclusive means no clear call, values can overlap the other calls; inactive means mostly above about 0.92. The list shows a part of the results.
Assign a class; possible classes are YES = active, NO = inactive

Illustrative cases are given below, each with its answer.
>  <COMPOUND>
S=C(N/N=C\c1cccs1)NC1CC2CCC1C2 (stereo unspecified)

>  <CLASSIFICATION>
NO

$$$$
>  <COMPOUND>
O=C(Nc1cccnc1)c1cc2c(s1)-c1ccccc1CC2

>  <CLASSIFICATION>
YES

$$$$
>  <COMPOUND>
Cc1ccc(OCc2n[nH]c(=S)n2Cc2ccccc2)c2c1CCC2

>  <CLASSIFICATION>
NO

$$$$

Please let me know the test result on file for O=c1c(-c2ccccc2)c(O)c2cccc3c4ccccc4n1c23 .
YES

Please let me know the test result on file for O=C(c1cc2c(s1)-c1ccccc1CC2)N1CCN(Cc2ccccc2)CC1 .
NO

Please let me know the test result on file for CS/C(Nc1cccc(C(F)(F)F)c1)=C(/C#N)S(=O)(=O)c1ccc(Cl)cc1 .
NO

Please let me know the test result on file for Cn1nc(-c2ccccc2)c(O)c(N=Nc2ccccc2)c1=O .
NO

====

# PROTOCOL_NOTES: chemical genetic growth profiling, strain panel (AID 1159580);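 note: tested at 20 µM; growth read once vehicle control cultures reached saturation at 30 °C; 1 = growth at the plate median or of vehicle wells; lower values mean less growth of the strain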
# CONDITIONS_USED: S. cerevisiae deletion strains, growth OD, locus YNL248C, strain rpa49, hits give low values
In all, about 5,500 compounds went through this assay and about 2,000 (36%) were called active. Inconclusive results (about 18%) are left out. The list shows a part of the results.
MEASUREMENT_NAME: normalized growth
Number only, no unit.

>  <COMPOUND>
COc1cc2c(cc1O)CCNC2C (stereo unspecified)

>  <OBSERVED>
0.997

$$$$

Turning now to a further compound:
GET /values?readout=normalized growth&item= CNS(=O)(=O)c1ccc(NC(=O)c2ccccc2C(=O)O)cc1
0.998

====

# PROTOCOL_NOTES: chemical genetic growth profiling, strain panel (AID 1159580);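 note: tested at 20 µM; growth read once vehicle control cultures reached saturation at 30 °C; 1 = growth at the plate median or of vehicle wells; lower values mean less growth of the strain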
# CONDITIONS_USED: S. cerevisiae deletion strains, growth OD, locus YDR502C, strain sam2
About 2,000 (36%) of roughly 5,500 compounds were called active. Inconclusive results (about 18%) are left out. No stated cut-off is given here; in the data, active means normalized growth mostly below about 0.91 (no sharp cut-off); inconclusive means no clear call, values can overlap the other calls; inactive means mostly above about 0.92. The list shows a part of the results. Where a SMILES comes first, the peptide text is derived from it. [ ]: non-standard residue; d: D form. Orn = NCCC[CH](N)C(=O)O
Assign a class; possible classes are y (active), n (inactive)

Illustrative cases are given below, each with its answer.
>  <COMPOUND>
COc1cnc(NS(=O)(=O)c2ccc(N)cc2)nc1

>  <CLASSIFICATION>
n

$$$$
>  <COMPOUND>
CC[C@H]1CN2CCc3cc(OC)c(OC)cc3C2C[C@@H]1CC1NCCc2cc(OC)c(OC)cc21 (stereo partly specified)

>  <CLASSIFICATION>
n

$$$$
>  <COMPOUND>
CC1(C)C(=O)[C@@H]2O[C@@H]2[C@@]2(C)C1CC(=O)[C@]1(C)C2CC[C@@]2(C)[C@H](c3ccoc3)OC(=O)[C@H]3O[C@]321 (stereo partly specified)

>  <CLASSIFICATION>
n

$$$$
>  <COMPOUND>
CC(C)CC1NC(=O)C(CCCN)NC(=O)C(C(C)C)NC(=O)C2CCCN2C(=O)C(Cc2ccccc2)NC(=O)C(CC(C)C)NC(=O)C(CCCN)NC(=O)C(C(C)C)NC(=O)C2CCCN2C(=O)C(Cc2ccccc2)NC1=O (stereo unspecified) (cyclo(FPV[Orn]LFPV[Orn]L); configuration not given here)

>  <CLASSIFICATION>
n

$$$$
>  <COMPOUND>
O=C1c2ccccc2C(=O)C1c1ccccc1

>  <CLASSIFICATION>
n

$$$$
>  <COMPOUND>
COc1cc(NS(=O)(=O)c2ccc(N)cc2)ncn1

>  <CLASSIFICATION>
n

$$$$
>  <COMPOUND>
CC[C@H]1OC(=O)[C@H](C)[C@@H](O[C@H]2C[C@@](C)(OC)[C@@H](O)[C@H](C)O2)[C@H](C)[C@@H](O[C@@H]2O[C@H](C)C[C@H](N(C)C)[C@H]2O)[C@](C)(O)C[C@@H](C)[C@@H]2N[C@@H](COCCOC)O[C@H]([C@H]2C)[C@]1(C)O

>  <CLASSIFICATION>
n

$$$$
>  <COMPOUND>
O=C(CCBr)N1CCN(C(=O)CCBr)CC1

>  <CLASSIFICATION>
n

$$$$
>  <COMPOUND>
O=C(O)c1cc([N+](=O)[O-])ccc1NCCCc1ccccc1

>  <CLASSIFICATION>
n

$$$$
>  <COMPOUND>
CCOC([O-])=Nc1c[n+](N2CCOCC2)no1

>  <CLASSIFICATION>
n

$$$$

Please let me know the test result on file for CCNc1nc(Cl)nc(NCC)n1 .
n

Please let me know the test result on file for COc1cc2cc3c4cc(OC)c(OC)cc4cc[n+]3c(C)c2cc1OC .
n

Please let me know the test result on file for CN(C)CCc1c[nH]c2ccc(CS(=O)(=O)N3CCCC3)cc12 .
n

Please let me know the test result on file for C[C@]12CCC(=O)C=C1CCC1C2[C@@H](O)C[C@@]2(C)C1CC[C@]2(O)C(=O)COC(=O)CCC(=O)O (stereo partly specified) .
n

Please let me know the test result on file for CC(NCCC(c1ccccc1)c1ccccc1)c1ccccc1 (stereo unspecified) .
n

====

# PROTOCOL_NOTES: chemical genetic growth profiling, strain panel (AID 1159580);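 note: tested at 20 µM; growth read once vehicle control cultures reached saturation at 30 °C; 1 = growth at the plate median or of vehicle wells; lower values mean less growth of the strain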
# CONDITIONS_USED: S. cerevisiae deletion strains, growth OD, locus YOR265W, strain rbl2, hits give low values
The whole screen tested about 5,500 compounds, of which about 2,000 (36%) were called active. Not shown: some 18% with an inconclusive outcome. The list shows a part of the results.
Recorded normalized growth by entry
Number only, no unit.

Some solved cases for reference:
>  <MOLECULE>
C#CC1(O)CCC2C3CCC4=CC(=O)CCC4(C)C3CCC21C (stereo not given)

>  <OBSERVED>
0.988

$$$$
>  <MOLECULE>
COc1ccc2c(=O)ccoc2c1

>  <OBSERVED>
1.01

$$$$
>  <MOLECULE>
C=C(C)[C@H]1Cc2c(ccc3c2O[C@@H]2COc4cc(OC)c(OC)cc4[C@@H]2C3=O)O1

>  <OBSERVED>
0.973

$$$$
>  <MOLECULE>
COc1c2occc2c(OC)c2c(=O)cc(C)oc12

>  <OBSERVED>
0.989

$$$$

GET /values?readout=normalized growth&item= C[C@]12CCC(=O)C=C1CCC1C2[C@@H](O)C[C@@]2(C)C1CC[C@]2(O)C(=O)COC(=O)CCC(=O)O (stereo not given in full)
1.01
